Assay: yeast display, Sf9 membrane polyspecificity reagent, FACS + sequencing; frameworks hold sequencing errors
value-type: polyreactivity (PSR sort gate)

chain-sequence	value-type	result
QVQLVESGGGLVQAGGSLRLSCAASGFAFSYYAMGWYRQAPGKEREFVASIDWSGGSTYYADSVKGRFTISRDNAKNIVYLQMNSLKPEDTAVYYCAAELDYFPGYDYWGQGTQVTVSS	polyreactivity (PSR sort gate)	low polyreactivity
QVQLVESGGGLVQAGGSLRLSCAASGSIFGDNAMGWYRQAPGKERELVAAINYNGGRTYYADSVKGRFTISRDNAKNTVYLQMNSLKPEDTAVYYCAKDNYQAPVQQYPFDYWGQGTQVTVSS	polyreactivity (PSR sort gate)	low polyreactivity
QVQLVESGGGLVHAGGSLRLSCAASGSTFPSYAMGWYRQAPGKERELVAAINSGGGTYYADSVKGRFTISRDNAKNTVYLQRNSLKPEDTAVYYCATSRYDYTKTEGGYWGQGNQVTVSS	polyreactivity (PSR sort gate)	low polyreactivity
QVQIVESGGGLVQAGGSLRLSCAASGSTFYEYAMGWYRQAPGKERELVATITSGGRTYYADSVKGRFTISRDNAKNTVYLQMNSLKPEDTAVYYCAAAGKGRFHFRSTMDYWGQGSQVTVSS	polyreactivity (PSR sort gate)	high polyreactivity
QVQLVESGGGLVQAGGSLRLSCAASGRIFWYYGMGWYRQAPGKERELVAAITSGGRTYYADSVKGRFTISRDNAKNTVYLQMNSLKPEDTAVYYCAKGYVRYPSKGYTFDYWGQGTQVTVSS	polyreactivity (PSR sort gate)	high polyreactivity

====

Test: yeast display, Sf9 membrane polyspecificity reagent, FACS + sequencing; frameworks hold sequencing errors
value-type: polyreactivity (PSR sort gate)

chain-sequence	value-type	result
QVQLVESGGGLVQAGVSLRLSCAASGFIFNIYAMGWYRQAPGKERELVAAISWRGGSTYYADSVKGRFTISRDNAKNTVYLQMNSLKPEYTAVYYCDVEDVWVGVFGDYDYWGEGTQVTVSS	polyreactivity (PSR sort gate)	low polyreactivity
QVQLVESGGGLVQAGGSLRLSCAASGRILKSYAMGWYRQAPGKERELVAAITSSGVSTYYADSVKGRFTISRDNAKNTVYLQMNSLKPEDTAVYYCAARNYRYPIMGYWGQGTEVTVSS	polyreactivity (PSR sort gate)	high polyreactivity
QDQLVESGGGLVQAGGSLRLSCAASGFILGLNAMGWYRQAPGKEREFVADISWSGDSTYYADSVKGRFTISRDNAKNTVYLQMNSLKPEDTAFYYCAAVPYYNWGYYYWGQGTQVTVSS	polyreactivity (PSR sort gate)	low polyreactivity
QVQLVESGGGLVQAGGSLRLSCAASGLTFIRYTRGWYRQAPGKDRELVAAINWSGDSTYYADSVKGRFTISLDNAKITVYLQMNSLKPEDTAVYYFNARRPRFRYDYWGQGTQVTVSW	polyreactivity (PSR sort gate)	high polyreactivity
QVQLVESGGGLVQAGGSLRLSCAASGRIFLGYTMGWYRQAPGKERELVAAISKSGDSTYYADSVKGRFTISRDNAKNTVYLQMNSLKPEDTAVYYCAKDYGGRLYYYWGQGTQVTVSS	polyreactivity (PSR sort gate)	high polyreactivity
QVQLVESCGGLVQAGGSLRLSCSASGSTFVINAMGWYRQAPGKERELVAAISSGDNTNYADSVKGRFTISRDNAKNTVYLQMNSLKPEETAVYYCAALPAYLDYGARRSMDYWGQGTQVTVSS	polyreactivity (PSR sort gate)	low polyreactivity
QVQLVESAGGLVQAGGSLRLSCAASGITFSYYTMGWYRQAPGKEREFVATIRRGGSTNYADSVKGRFTISRDNAKNTVYLQMNSLKPEDTAVYYCAADLRRNGWGFDYWGQGTQVTVSS	polyreactivity (PSR sort gate)	high polyreactivity
QVQLVESGGGLVQAGGSLRLSCAASGRIFYRNAMGWYRQAPGKERELVAVITSSSGSTYADSVKGRFTISRDNAKNTVYLQMNSLKPEDTAVYYCAAEEDYIYFYVSMDYWGQGTQVTVSS	polyreactivity (PSR sort gate)	low polyreactivity
QVQLVESGGGLVQAGGSLRLSCAASGRIFYPYAMGWYRQAPGKERELVAAISLSGGSTLYADSVKGRFTISRDNAKNTVYLQMNSLKPEDTAVYYCAADQRTRYQTRQYYYWGQGTQVTVSS	polyreactivity (PSR sort gate)	low polyreactivity
QVQLVESGGGLVQAGGSLRLSCAASGSIFVWYAMGWYRQAPGKERELVAAINWSGGRTYYADSVKGRFTISRDNAKNTVYLQMNSLKPEDTAVSYCNKVVPGYSAAKYDYWGQGTQVTVSS	polyreactivity (PSR sort gate)	high polyreactivity
QVQLVESGGGLVQAGGSLRLSCAASGSILRYYAKGWYRQAPGKERELVASINWSGGSTYYADSVKGRFTISRDNAKNTVYLQMNSLKPEDTAVYYCAARRRSAEYNYWGQGTQVTVSS	polyreactivity (PSR sort gate)	high polyreactivity

====

Assay: yeast display, Sf9 membrane polyspecificity reagent, FACS + sequencing; frameworks hold sequencing errors
value-type: polyreactivity (PSR sort gate)

chain-sequence	result
QVQLVESGGGLVQAGGSLRLSCAASGSTFDRNVMGWYRQAPGKERELVAAISRVSSTNYADSVKGRFTISRDNAKNTVYLQMNSLKPEDTAVYYCAVDRAGSIMNYWGQGTQVTVSS	low polyreactivity
QVQLVESGGGLVQAGGSLRLSCAASGLTFDSNVMRWYRQAHGKEMELVAAITSSGRTYYADSVKGRFTISRDNAKNTFYLQMNSLKPEDTAVYYCAARNLAYTRKGYYYWGQGTQVTVSS	high polyreactivity
QVQLVESGGGLVQAGGSLRLSCAASGRIFFENTMGWYRQAPGKERELVAAISSSGTTNYADSVKGRFTISRDNAKNTVYLQMNSLKPEDTAVYYCNAVLHGEQVGKYIAYVYWGQGTQVTVAS	low polyreactivity
QVQLVESGGGLVQAGGSLRISCAASGFIFRYYTMGWYRQAPGKERELVATITSGGSTYYADSVKGRFTISRDNAKNTVYLQMNSLKPEDTAVYYCAKVRDVLWRFNYWGQGTEVTVSS	high polyreactivity
QVQLVESGAGLVQAGGSLRISCAASGIIFTYYPMGWYRQAPGKERELVASISSSGTSTYYADSVKGRFTISRDNAKNTVYLQLNSLKPEDTAVYYCAKSYWGDNSGFPGTPYDYWGQGTQVTVSS	low polyreactivity

====

Assay: yeast display, Sf9 membrane polyspecificity reagent, FACS + sequencing; frameworks hold sequencing errors

chain-sequence	polyreactivity (PSR sort gate)
QVQLVESGGGLVQAGGSLRLSCAASGRTIRGNAMGWYRQAPGKERELVAAITRSGASTTYADSVKGRFTISRDNAKNTVYLQMNSLKPEDTAVYYCAARSGAVKYSSYYYWGQGTQVTVSS	high polyreactivity
QVQLVESGGGLVQAGGSLRLSCAASGRIFGWYAMGCYIQAPGKERELVAAISSNGGSTYYADSVKGRFTISRDNAKNTVYLQMNSLKPEDTAVYYCAAVRVFQYKYDRFNYWGQGTQVTVSS	high polyreactivity

====

Experiment: yeast display, Sf9 membrane polyspecificity reagent, FACS + sequencing; frameworks hold sequencing errors

chain-sequence	polyreactivity (PSR sort gate)
QVQLVESGGGLVQAGGSLRLSCAASGSTFGSYAMGWYRQAPGKERELVAAITASGGSTYYADSVKGRFTISRDNAKNTGYLQMNSLKPEDTAVYYCATRWFAFPWDEYNYWGQGTQVTVSS	low polyreactivity
QVQLVESGGGLVQAGGSLRLSCAASGFTFWSYAMGWYRQAPGKERELVAAISSSGDSTYYADSVKGRFTISRDNAKNTVYLQMNSLKPEDTAVYYCAAEYQYLSVEVTDIWYLTKYDYWGQGTQVTVSS	low polyreactivity
QVQLVESGGGLVQAGGSLRLSCAASGFIFLRYGMGWYRQAPGKERELVASIDSTGGSTYADSVKGRFTISRDNAKNTVYLQMNSLKPEDTAVYYCAAAYYIVSQRDYWGQGTQVTVSS	low polyreactivity
QVQLVESGGGLVQAGGSLRLSCAASGFIFLNYAMGWYRQAPGKERELVAAITSGGNTTYADSVKGRFTISRDNAKNTVYLQMNSLKPEDTAVYYCAADGWRAGPGDYWGQGTQVIVSS	low polyreactivity

====

Assay: yeast display, Sf9 membrane polyspecificity reagent, FACS + sequencing; frameworks hold sequencing errors

chain-sequence	polyreactivity (PSR sort gate)
QVQLVESGGGLVQAGGSLRLSCAASGFIFGYYAMGWYRQAPGKERELVAAISWNGGSTYYADSVKGRFTISRDNAKNTVYLQMNSLKPEDTAVYYCAADGYETYYDYDYWGQGTQVTVSS	high polyreactivity
QVQLVESGGGLVQAGGSLRLSCAASGSILYGNAMGWYRQAPGKERELVAAISWRGGRTYYADSVKGRFTISRDNAKNTVYLQMNSLKPEDTAVYYCAAQIGLVSGRDYWGQGTQVTVSS	high polyreactivity

====

Test: yeast display, Sf9 membrane polyspecificity reagent, FACS + sequencing; frameworks hold sequencing errors
value-type: polyreactivity (PSR sort gate)

chain-sequence	value-type	result
QVQLVESGGGLVQAGGSLRLSCAASGTIFTDNVMGWYRQAPGKERELVAAITYSAASTYYADSVKGRFTISRDNAKNTVYLQMNSLKPEDTAVYYCNADDPDYLVSYRYDYWGQGTQVTVSS	polyreactivity (PSR sort gate)	low polyreactivity
QVQLVESGGGLVQAGGSLRLSCAASGRIFEPYAMGWYRQAPGKERELFAAITSGGSTDYADSVKGRFTISRDNAKNTVYLQMNSLKPEDTAVYYCAARVTYGGIPARQIYDYWGQGTQVTVSS	polyreactivity (PSR sort gate)	low polyreactivity
QVQLVESGGGLVQAGGSLRLSCAASGSIFHDNAMGWYRQAPGKERELVAAINRGGSTHYADSVKGRFTISRDNAKNTVYLQMNSLKPEDTAVYYCAADGFRPEVGYWGQGTQVTVSS	polyreactivity (PSR sort gate)	low polyreactivity
